Target: Androgen receptor (Homo sapiens)
Sequence (P10275 whole entry): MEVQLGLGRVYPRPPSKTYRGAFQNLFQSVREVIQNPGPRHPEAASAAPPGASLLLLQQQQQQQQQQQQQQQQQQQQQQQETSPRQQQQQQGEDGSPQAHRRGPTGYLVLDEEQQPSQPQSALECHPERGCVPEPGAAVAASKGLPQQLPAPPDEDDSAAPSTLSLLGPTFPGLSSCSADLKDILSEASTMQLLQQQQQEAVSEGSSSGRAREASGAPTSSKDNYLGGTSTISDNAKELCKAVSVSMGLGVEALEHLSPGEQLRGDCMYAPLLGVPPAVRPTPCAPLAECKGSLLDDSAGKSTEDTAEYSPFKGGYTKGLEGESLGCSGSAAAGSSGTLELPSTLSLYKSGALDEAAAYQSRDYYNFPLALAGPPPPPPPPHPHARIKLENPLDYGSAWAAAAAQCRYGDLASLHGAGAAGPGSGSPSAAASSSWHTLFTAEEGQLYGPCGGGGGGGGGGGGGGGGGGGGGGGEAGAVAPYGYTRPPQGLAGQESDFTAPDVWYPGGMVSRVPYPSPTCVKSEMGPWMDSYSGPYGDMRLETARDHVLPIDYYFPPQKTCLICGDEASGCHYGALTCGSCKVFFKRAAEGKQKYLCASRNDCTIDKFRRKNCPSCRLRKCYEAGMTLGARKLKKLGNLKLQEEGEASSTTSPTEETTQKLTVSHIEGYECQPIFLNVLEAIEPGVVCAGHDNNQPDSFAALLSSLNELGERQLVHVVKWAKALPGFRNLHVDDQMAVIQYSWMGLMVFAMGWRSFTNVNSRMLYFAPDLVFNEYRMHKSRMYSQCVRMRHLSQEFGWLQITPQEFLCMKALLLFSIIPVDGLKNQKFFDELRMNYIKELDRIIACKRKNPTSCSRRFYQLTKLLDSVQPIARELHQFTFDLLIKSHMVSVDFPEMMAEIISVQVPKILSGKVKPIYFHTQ

# Compound, Value Unit, IC50
rows = [
    ("O=[N+]([O-])c1ccc(C2=NO[C@@H]3CCCC[C@H]23)c(C(F)(F)F)c1", "nM", 129),
    ("O=[N+]([O-])c1ccc(C2=NOC3CCCCC23)cc1C(F)(F)F (racemic)", "nM", 120),
    ("N#Cc1ccc(C2=NO[C@H]3CCC[C@@H]23)cc1C(F)(F)F", "nM", 617),
    ("Fc1ccc(C2=NOC3CCCC23)c(C(F)(F)F)c1 (cis isomer; 5g)", "nM", 1350),
    ("N#Cc1ccc(C2=NOC3CCCCCC23)c(C(F)(F)F)c1 (cis isomer)", "nM", 1000),
    ("N#Cc1ccc(C2=NO[C@@H]3CCC[C@H]23)cc1C(F)(F)F", "nM", 224),
    ("O=[N+]([O-])c1ccc(C2=NO[C@H]3CCC[C@@H]23)cc1C(F)(F)F", "nM", 2510),
    ("N#Cc1ccc(C2=NOC3CCCC23)c(C(F)(F)F)c1 (racemic)", "nM", 447),
    ("N#Cc1ccc(C2=NOC3CCCCC23)cc1C(F)(F)F (racemic)", "nM", 27.5),
    ("O=[N+]([O-])c1ccc(C2=NO[C@@H]3CCC[C@H]23)cc1C(F)(F)F", "nM", 302),
]

Where do these numbers come from? They come from ChEMBL document CHEMBL2157978.
